Quick list: interaction score per entry.
Measurement Target: T1, P2-AA-1HGe-D
T1 chain: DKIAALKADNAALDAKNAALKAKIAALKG
Experiment Notes: two-hybrid library CCmax;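 also: natural log of median RNA to DNA barcode read ratio; higher means stronger binding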
Assay Conditions: mean of both orientations
// response body must contain only the number

Example entries begin here.
DEIAALEAANAALAAENAALEAEIAALEG [P1-AA-1HGe-A]    1.82
DEIAALEADNAALDAENAALEAEIAALEG [P1-AA-1HGe-D]    0.303
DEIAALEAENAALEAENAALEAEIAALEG [P1-AA]    1.9
DEIAALEAHNAALHAENAALEAEIAALEG [P1-AA-1HGe-H]    1.6
DEIAALEARNAALRAENAALEAEIAALEG [P1-AA-1HGe-R]    1.67

**Q:** Name the recorded interaction score for DEIAALEAMNAALMAENAALEAEIAALEG [P1-AA-1HGe-M] .
**A:** 2.01

**Q:** Name the recorded interaction score for DEIAALEAKNAALKAENAALEAEIAALEG [4H465-AA] .
**A:** 1.36
